target: Human immunodeficiency virus type 1 protease (Human immunodeficiency virus 1, UniProt Q72874)
Starred links: 1 amine or outer side, 2 acyl side, 3 side chain; linkers in the order of their positions; H or OH if unused. Non-standard residues stand in square brackets, D forms with d. Residues, ends and D or L forms follow the SMILES beside them. ξ: configuration not given here. Pheψ(R-CHOHCH2N)ξPro = O=C(C1CCCN1C[C@@H](O)[C@H](Cc1ccccc1)N[*:1])[*:2]
measured endpoint: pKi
// pKi: -log10(molar conc.)

CC[C@H](C)[C@H](NC(=O)C1CCCN1C[C@@H](O)[C@H](Cc1ccccc1)NC(=O)[C@H](CC(N)=O)NC(=O)OCc1ccccc1)C(=O)NCCc1ccccn1 (some centres not stated) | 7.15

Could you now consider this next compound?
Per the record, CC[C@H](C)[C@H](NC(=O)C1CCCN1C[C@@H](O)[C@H](Cc1ccccc1)NC(=O)[C@H](CC(N)=O)NC(=O)[C@H](CC(C)C)NC(=O)[C@H](CO)NC(C)=O)C(=O)N[C@@H](Cc1c[nH]c2ccccc12)C(=O)OC (some centres not stated) (Ac-SLN[Pheψ(R-CHOHCH2N)ξPro]IW-OMe) has pKi of 8.44

---

Item-by-item account of pIC50
test system: Simian immunodeficiency virus; experiment: Compound was evaluated for the inhibition of SIV induced syncytia formation; assay type: functional, organism-based
// pIC50 is dimensionless: -log10 of concentration (M)

Some compounds with known pIC50 results, for comparison:
CC[C@H](C)[C@H](NC(=O)C1CCCN1C[C@@H](O)[C@H](Cc1ccccc1)NC(=O)[C@H](CC(N)=O)NC(=O)c1ccc2ccccc2n1)C(=O)NCCc1ccccn1 (stereo not given in full) | 5.40
CC[C@H](C)[C@H](NC(=O)C1CCCN1C[C@@H](O)[C@H](Cc1ccccc1)NC(=O)[C@H](CC(N)=O)NC(=O)OCc1ccccc1)C(=O)N[C@@H](Cc1ccccc1)C(=O)OC (stereo not given in full) | 5.10
CC[C@H](C)[C@H](NC(=O)C1CCCN1C[C@@H](O)[C@H](Cc1ccccc1)NC(=O)[C@H](CC(N)=O)NC(=O)OCc1ccccc1)C(=O)N[C@@H](Cc1ccccc1)C(=O)NC (stereo not given in full) | 5.40
CC[C@H](C)[C@H](NC(=O)[C@@H]1CCCN1C[C@@H](O)[C@H](Cc1ccccc1)NC(=O)[C@H](CC(N)=O)NC(=O)OCc1ccccc1)C(=O)N[C@@H](Cc1ccccc1)C(=O)OC | 5.40

Here is another compound to look at.
CC[C@H](C)[C@H](NC(=O)C1CCCN1C[C@@H](O)[C@H](Cc1ccccc1)NC(=O)[C@H](CC(N)=O)NC(=O)c1ccc2ccccc2n1)C(=O)N[C@@H](Cc1ccccc1)C(=O)NC (stereo not given in full) yielded pIC50 of 5.40

---

Catalogue of pKi readings, one per entry.
biological target: Human immunodeficiency virus type 1 protease (Human immunodeficiency virus 1, UniProt Q72874)
Starred links: 1 amine or outer side, 2 acyl side, 3 side chain; linkers in the order of their positions; H or OH if unused. Non-standard residues stand in square brackets, D forms with d. Residues, ends and D or L forms follow the SMILES beside them. ξ: configuration not given here. *: point of attachment. Pheψ(R-CHOHCH2N)ξPro = O=C(C1CCCN1C[C@@H](O)[C@H](Cc1ccccc1)N[*:1])[*:2]; Bip = N[C@@H](Cc1ccc(-c2ccccc2)cc1)C(=O)O; hPhe = N[C@@H](CCc1ccccc1)C(=O)O; Boc = CC(C)(C)OC(=O)*
Please note pKi is a logarithmic value: minus log10 of concentration in mol/L. Answer with that number alone.

Guide cases for pKi, answers given:
CC[C@H](C)[C@H](NC(=O)[C@@H]1CCCN1C[C@@H](O)[C@H](Cc1ccccc1)NC(=O)[C@H](CC(N)=O)NC(=O)c1ccc2ccccc2n1)C(=O)N[C@@H](Cc1ccccc1)C(=O)OC | 10.00
CC[C@H](C)[C@H](NC(=O)C1CCCN1C[C@@H](O)[C@H](Cc1ccccc1)NC(=O)[C@H](CC(N)=O)NC(=O)[C@H](CCc1ccccc1)NC(=O)OC(C)(C)C)C(=O)N[C@H](C(=O)OC)C(C)C (stereo not given in full) (Boc-[hPhe]N[Pheψ(R-CHOHCH2N)ξPro]IV-OMe) | 7.70
CC[C@H](C)[C@H](NC(=O)C1CCCN1C[C@@H](O)[C@H](Cc1ccccc1)NC(=O)[C@H](CC(N)=O)NC(=O)[C@H](Cc1ccc(-c2ccccc2)cc1)NC(=O)OC(C)(C)C)C(=O)N[C@H](C(=O)OC)C(C)C (stereo not given in full) (Boc-[Bip]N[Pheψ(R-CHOHCH2N)ξPro]IV-OMe) | 7.85
CC[C@H](C)[C@H](NC(=O)C1CCCN1C[C@@H](O)[C@H](Cc1ccccc1)NC(=O)[C@H](CC(N)=O)NC(=O)c1ccc2ccccc2n1)C(=O)NCCc1ccccn1 (stereo not given in full) | 7.89
CC[C@H](C)[C@H](NC(=O)C1CCCN1C[C@@H](O)[C@H](Cc1ccccc1)NC(=O)[C@H](CC(N)=O)NC(=O)c1ccc2ccccc2n1)C(=O)N[C@@H](Cc1ccccc1)C(=O)OC (stereo not given in full) | 9.40

Entry CC[C@H](C)[C@H](NC(=O)C1CCCN1C[C@@H](O)[C@H](Cc1ccccc1)NC(=O)[C@H](CC(N)=O)NC(=O)c1ccc2ccccc2n1)C(=O)N[C@H](C(=O)OC)C(C)C (stereo not given in full) — recorded pKi = 8.60

Documented pKi of CC[C@H](C)[C@H](NC(=O)C1CCCN1C[C@@H](O)[C@H](Cc1ccccc1)NC(=O)[C@H](CC(N)=O)NC(=O)[C@H](CC(C)C)NC(=O)[C@H](CO)NC(C)=O)C(=O)N[C@@H](CCc1ccccc1)C(=O)OC (stereo not given in full) (Ac-SLN[Pheψ(R-CHOHCH2N)ξPro]I[hPhe]-OMe) : 8.90

CC[C@H](C)[C@H](NC(=O)[C@@H]1CCCN1C[C@@H](O)[C@H](Cc1ccccc1)NC(=O)[C@H](CC(N)=O)NC(=O)OCc1ccccc1)C(=O)N[C@@H](Cc1ccccc1)C(=O)OC yielded pKi of 9.00

Input CC[C@H](C)[C@H](NC(=O)C1CCCN1C[C@@H](O)[C@H](Cc1ccccc1)NC(=O)[C@H](CC(N)=O)NC(=O)OCc1ccccc1)C(=O)N[C@@H](Cc1ccc2ccccc2c1)C(=O)OC (stereo not given in full) . Output pKi: 8.72

Just so you know, measured pKi for CC[C@H](C)[C@H](NC(=O)C1CCCN1C[C@@H](O)[C@H](Cc1ccccc1)NC(=O)[C@H](CC(N)=O)NC(=O)OC(C)(C)C)C(=O)N[C@H](C(=O)OC)C(C)C (stereo not given in full) came out at 6.36

Hello, the source for this data is ChEMBL document CHEMBL1125316, in case you need it.
